For each entry below, report its z-score value.
- experimental target: Metabotropic glutamate receptor 8 (Rattus norvegicus)
- test details: mGluR8 Gi/Go-coupled signaling modulation – cell-based, rat, thallium flux, HTS, primary screen (AID 488969)
- assay setup: HEK293 rat mGluR8, GIRK thallium flux, FluoZin2; at 10 µM; stronger effect = higher value; submaximal glutamate (EC20) added with thallium
Over roughly 110,000 compounds, “z-score” has its median near -0.1; the highest 2% begin near 2. Only a selection was taken, and the highest values are over-represented in it overall.
Would you mind answering with just the numeric figure?

INPUT: Give Metabotropic glutamate receptor 8 (Rattus norvegicus) z-score for O=C(CCCn1c(=S)[nH]c2cc3c(cc2c1=O)OCO3)N1CCN(c2ccc(Cl)cc2)CC1
OUTPUT: -0.36

INPUT: Moving on to CCCNC(=O)C(Cc1ccccc1)NS(=O)(=O)c1ccc2c(c1)CCC(=O)N2 (stereo not given)
OUTPUT: 0.179

INPUT: Then Cc1cc(Cl)ccc1NC(=S)NCc1ccc(Cl)cc1 ?
OUTPUT: 0.0662

INPUT: Try the compound COCCn1c(=S)[nH]c2cc(C(=O)N3CCN(c4ccc(F)cc4)CC3)ccc2c1=O
OUTPUT: 4.3

INPUT: What about CCN(CC)CCn1c(=S)[nH]c2cc3c(cc2c1=O)OCO3 ?
OUTPUT: -0.565

INPUT: Try CCCN(CCC)CCNC(=O)C(NS(=O)(=O)c1ccc2c(c1)CCC(=O)N2)c1ccccc1 (stereo not given) next.
OUTPUT: 10

INPUT: Can you check COCCn1c(=S)[nH]c2cc(C(=O)N3CCN(c4ccccc4OC)CC3)ccc2c1=O next?
OUTPUT: -0.495

INPUT: Input CC(C)OCCCn1c(=S)[nH]c2cc3c(cc2c1=O)OCO3
OUTPUT: 6.19

INPUT: Same thing, different compound: O=C1CCc2cc(S(=O)(=O)NC(C(=O)NCc3cccnc3)c3ccccc3)ccc2N1 (stereo not given)
OUTPUT: -0.174

INPUT: What about this compound? O=C(CSc1nnc(CNC(=O)c2ccco2)o1)c1ccccc1
OUTPUT: 0.135

###

- experimental target: Metabotropic glutamate receptor 8 (Rattus norvegicus) (UniProt P70579)
- Sequence (P70579 whole entry, looked up): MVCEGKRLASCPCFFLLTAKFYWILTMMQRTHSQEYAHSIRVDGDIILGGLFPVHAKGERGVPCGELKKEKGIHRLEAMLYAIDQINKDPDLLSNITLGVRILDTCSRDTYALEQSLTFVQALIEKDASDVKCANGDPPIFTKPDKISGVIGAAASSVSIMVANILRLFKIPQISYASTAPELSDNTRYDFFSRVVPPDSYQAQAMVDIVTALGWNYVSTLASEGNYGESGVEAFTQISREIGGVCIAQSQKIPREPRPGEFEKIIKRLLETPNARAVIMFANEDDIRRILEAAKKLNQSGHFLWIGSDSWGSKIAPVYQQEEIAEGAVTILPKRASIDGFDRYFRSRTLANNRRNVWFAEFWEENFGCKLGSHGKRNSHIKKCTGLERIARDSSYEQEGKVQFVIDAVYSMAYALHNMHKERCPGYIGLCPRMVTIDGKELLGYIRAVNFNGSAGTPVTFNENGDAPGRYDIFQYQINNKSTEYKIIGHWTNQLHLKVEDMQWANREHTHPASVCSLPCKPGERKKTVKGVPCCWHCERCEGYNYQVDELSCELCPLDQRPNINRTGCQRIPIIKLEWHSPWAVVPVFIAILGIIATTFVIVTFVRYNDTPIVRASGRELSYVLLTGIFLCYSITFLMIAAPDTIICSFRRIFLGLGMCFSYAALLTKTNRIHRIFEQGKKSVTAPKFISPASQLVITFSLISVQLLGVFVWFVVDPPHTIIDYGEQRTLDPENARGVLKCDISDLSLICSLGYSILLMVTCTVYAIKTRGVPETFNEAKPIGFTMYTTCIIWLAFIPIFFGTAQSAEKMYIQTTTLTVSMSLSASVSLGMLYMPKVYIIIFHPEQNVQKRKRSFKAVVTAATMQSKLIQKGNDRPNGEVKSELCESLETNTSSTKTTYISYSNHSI
- test details: mGluR8 Gi/Go-coupled signaling modulation – cell-based, rat, thallium flux, HTS, primary screen (AID 488969)
- assay setup: HEK293 rat mGluR8, GIRK (G protein-gated inwardly rectifying potassium channel) thallium flux, FluoZin2; at 10 µM; stronger effect = higher value; submaximal glutamate (EC20) added with thallium
Over roughly 110,000 compounds, “z-score” has its median near -0.1; the highest 2% begin near 2. What follows is part of a selection rich in the highest values, with near analogues and random picks from the rest. Activity calls are given as the source filed them.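 Rule for the calls: active = z-score in the third read window above 3 or below -3; inactive = the rest.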
parameter measured: z-score

INPUT: For CC(C)CN(/C=N/c1sc2c(c1C#N)CCCCC2)CC(C)C , what is its reported z-score?
OUTPUT: 2.9

INPUT: Now the compound CCCCCn1nc(-c2ccccc2)c2nc3ccccc3nc21
OUTPUT: 14.9 (active)

INPUT: Quick one: CCCCn1nc(-c2ccccc2)c2nc3ccccc3nc21
OUTPUT: -0.013

INPUT: Subsequent entry: O=C(Nc1cccc2ccccc12)c1ccccc1NS(=O)(=O)c1cccc2cccnc12
OUTPUT: -0.0553

INPUT: // query: CCc1nnc(NC(=O)CSc2nnc(-c3cccnc3)n2CCc2ccccc2)s1
OUTPUT: 0.167

INPUT: Next compound: CCCn1nc(-c2ccccc2)c2nc3ccccc3nc21
OUTPUT: 0.0864

INPUT: Could you do the same for C=CCn1cc(/C=N/NC(=O)COc2cccc3cccnc23)c2ccccc21 , please?
OUTPUT: -0.515

INPUT: Again, but for CCn1c2ccccc2c2nnc(SCC(=O)OCN3C(=O)c4ccccc4C3=O)nc21
OUTPUT: -0.087

INPUT: Proceed to COc1ccc(CCNC(=O)c2nc3ncccn3n2)cc1OC
OUTPUT: 0.169

INPUT: Do the same for CC(C)OC(=O)c1cc2c(ccn2C)n1CC(=O)N(Cc1ccccc1)c1ccc(F)cc1 please
OUTPUT: -0.00352

INPUT: Please answer likewise for CCCN(/C=N/c1sc2c(c1C#N)CCCCC2)CCC
OUTPUT: -0.155
